Parameter: inhibition (INH). Scope: all listed entries.
# System: Trypanosoma cruzi
# test_description: Induction of mitochondrial membrane potential disruption in Trypanosoma cruzi MHOM/Pe/2011/Arequipa DTU 5 epimastigotes assessed as inhibition of DNA replication and RNA synthesis at IC25 after 72 hrs by acridine orange staining based flow cytometry relative to control
# Format: functional
measurement_type: inhibition (INH) (%)

{"chem_smiles": "COc1ccc(C(=O)CCN2CCN(c3ccc(Cl)cc3)CC2)cc1", "measurement_type": "inhibition (INH)", "units_text": "%", "obs_value": 18}
{"chem_smiles": "COc1ccc(C(=O)CCN2CCN(c3ccc(F)cc3)CC2)cc1", "measurement_type": "inhibition (INH)", "units_text": "%", "obs_value": 24.6}
{"chem_smiles": "O=C(Cn1ccnc1[N+](=O)[O-])NCc1ccccc1", "measurement_type": "inhibition (INH)", "units_text": "%", "obs_value": 22.4}
{"chem_smiles": "COc1ccc(C(=O)CCN2CCN(c3ccc([N+](=O)[O-])cc3)CC2)cc1", "measurement_type": "inhibition (INH)", "units_text": "%", "obs_value": 72.9}

---

# test_description: Selectivity index, ratio of IC50 for African green monkey Vero cells to IC50 for Trypanosoma cruzi IRHOD/CO/2008/SN3 DTU 1 epimastigotes
# Assay type: toxicity
# assay_context: read-out: Ratio IC50
Quick rule: selectivity ratio of at least 3 means MET, below that means NOT MET.

{"chem_smiles": "COc1ccc(C(=O)CCN2CCN(c3ccc(F)cc3)CC2)cc1OC", "group": "NOT MET"}
{"chem_smiles": "Cc1ccc(C(=O)CCN2CCN(c3ccc(Cl)cc3)CC2)cc1", "group": "MET"}
{"chem_smiles": "O=C(CCN1CCN(c2ccc([N+](=O)[O-])cc2)CC1)c1ccc(Br)cc1", "group": "NOT MET"}
{"chem_smiles": "O=C(CCN1CCN(c2ccc([N+](=O)[O-])cc2)CC1)c1ccc(OC(F)(F)F)cc1", "group": "NOT MET"}
{"chem_smiles": "COc1ccc(C(=O)CCN2CCN(Cc3cccc(C)c3)CC2)cc1OC", "group": "NOT MET"}
{"chem_smiles": "O=C(CCN1CCN(c2ccc(Cl)cc2)CC1)c1ccc(F)c(F)c1", "group": "MET"}
{"chem_smiles": "O=C(CCN1CCN(c2ccc([N+](=O)[O-])cc2)CC1)c1ccc(F)c(Cl)c1", "group": "NOT MET"}
{"chem_smiles": "O=C(CCN1CCN(c2ccc(Cl)cc2)CC1)c1ccc(C(F)(F)F)cc1", "group": "NOT MET"}
{"chem_smiles": "O=C(CCN1CCN(c2ccc([N+](=O)[O-])cc2)CC1)c1ccc(F)c(Br)c1", "group": "MET"}
{"chem_smiles": "O=C(CCN1CCN(c2ccc([N+](=O)[O-])cc2)CC1)c1ccc(C(F)(F)F)cc1", "group": "MET"}

---

Parameter: selectivity ratio. Scope: all listed entries.
# test_description: Selectivity index, ratio of IC50 for African green monkey Vero cells to IC50 for Trypanosoma cruzi TINF/CH/1956/Tulahuen DTU 6 epimastigotes
# Type: toxicity
# assay_context: read-out: Ratio IC50

{"chem_smiles": "O=C(CCN1CCN(c2ccc(F)cc2)CC1)c1ccc(OC(F)(F)F)cc1", "selectivity ratio": 1.3}
{"chem_smiles": "COc1ccc(C(=O)CCN2CCN(c3ccc([N+](=O)[O-])cc3)CC2)cc1", "selectivity ratio": 15.7}
{"chem_smiles": "O=C(CCN1CCN(c2ccc(F)cc2)CC1)c1ccc(F)c(Cl)c1", "selectivity ratio": 5}
{"chem_smiles": "O=C(CCN1CCN(c2ccc(C(F)(F)F)cc2)CC1)c1ccc(C(F)(F)F)cc1", "selectivity ratio": 1.1}
{"chem_smiles": "O=C(CCN1CCN(c2ccc(Cl)cc2)CC1)c1ccc(Cl)c(F)c1", "selectivity ratio": 3.2}
{"chem_smiles": "O=C(CCN1CCN(c2ccc(Cl)cc2)CC1)c1ccc(C(F)(F)F)cc1", "selectivity ratio": 1.4}
{"chem_smiles": "O=C(CCN1CCN(c2ccc(C(F)(F)F)cc2)CC1)c1ccc(F)c(Br)c1", "selectivity ratio": 2.6}
{"chem_smiles": "Cc1ccc(C(=O)CCN2CCN(c3ccc(C(F)(F)F)cc3)CC2)cc1", "selectivity ratio": 6.2}
{"chem_smiles": "O=C(CCN1CCN(c2ccc([N+](=O)[O-])cc2)CC1)c1ccc(C(F)(F)F)cc1", "selectivity ratio": 5}
{"chem_smiles": "COc1ccc(C(=O)CCN2CCN(c3ccc(F)cc3)CC2)cc1OC", "selectivity ratio": 1.7}

---

# test_description: Selectivity index, ratio of IC50 for African green monkey Vero cells to IC50 for Trypanosoma cruzi IRHOD/CO/2008/SN3 DTU 1 epimastigotes
# Assay type: toxicity
# assay_context: read-out: Ratio IC50
measurement_type: selectivity ratio

{"chem_smiles": "O=C(CCN1CCN(c2ccc(F)cc2)CC1)c1ccc(C(F)(F)F)cc1", "obs_value": 0.4}
{"chem_smiles": "O=C(CCN1CCN(c2ccc(F)cc2)CC1)c1ccc(F)c(F)c1", "obs_value": 10.3}
{"chem_smiles": "O=C(CCN1CCN(c2ccc(Cl)cc2)CC1)c1ccc(Br)cc1", "obs_value": 2}
{"chem_smiles": "O=C(CCN1CCN(c2ccc(F)cc2)CC1)c1ccc(F)c(Cl)c1", "obs_value": 4.5}
{"chem_smiles": "O=C(CCN1CCN(c2ccccc2F)CC1)c1ccc(F)cc1", "obs_value": 0.9}
{"chem_smiles": "O=C(CCN1CCN(c2ccc([N+](=O)[O-])cc2)CC1)c1ccc(F)c(F)c1", "obs_value": 0.8}
{"chem_smiles": "O=C(CCN1CCN(c2ccc(Cl)cc2)CC1)c1ccc(Cl)c(F)c1", "obs_value": 3.4}

---

Parameter: selectivity ratio. Scope: all listed entries.
# test_description: Selectivity index, ratio of IC50 for African green monkey Vero cells to IC50 for Trypanosoma cruzi MHOM/Pe/2011/Arequipa DTU 5 trypamastigotes derived from infected Balb/c albino mouse
# Type: toxicity
# assay_context: read-out: Ratio IC50

{"chem_smiles": "COc1ccc(C(=O)CCN2CCN(c3ccc(F)cc3)CC2)cc1", "selectivity ratio": 49.1}
{"chem_smiles": "COc1ccc(C(=O)CCN2CCN(c3ccc([N+](=O)[O-])cc3)CC2)cc1", "selectivity ratio": 50.4}
{"chem_smiles": "O=C(CCN1CCN(c2ccc(F)cc2)CC1)c1ccc(F)c(F)c1", "selectivity ratio": 12.2}
{"chem_smiles": "COc1ccc(C(=O)CCN2CCN(c3ccc(Cl)cc3)CC2)cc1", "selectivity ratio": 89.6}

---

# Tested on: Trypanosoma cruzi
# test_description: Trypanocidal activity against Trypanosoma cruzi MHOM/Pe/2011/Arequipa DTU 5 epimastigotes after 48 hrs by resazurin dye based assay
# Type: functional, organism-based
# assay_context: MHOM/Pe/2011/Arequipa DTU 5, 48 h
pIC50: −log10 of the molar value.

{"chem_smiles": "O=C(CCN1CCN(c2ccc([N+](=O)[O-])cc2)CC1)c1ccc(OC(F)(F)F)cc1", "pIC50": 4.39}
{"chem_smiles": "O=C(CCN1CCN(c2ccccc2F)CC1)c1ccc(F)cc1", "pIC50": 4.42}
{"chem_smiles": "COc1ccc(C(=O)CCN2CCN(c3ccc([N+](=O)[O-])cc3)CC2)cc1", "pIC50": 4.50}
{"chem_smiles": "O=C(CCN1CCN(c2ccc(C(F)(F)F)cc2)CC1)c1ccc(C(F)(F)F)cc1", "pIC50": 4.61}
{"chem_smiles": "O=C(CCN1CCN(c2ccc(F)cc2)CC1)c1ccc(Cl)c(F)c1", "pIC50": 4.40}
{"chem_smiles": "Cc1ccc(C(=O)CCN2CCN(c3ccc(Cl)cc3)CC2)cc1", "pIC50": 4.50}
{"chem_smiles": "O=C(CCN1CCN(c2ccc(Cl)cc2)CC1)c1ccc(F)c(Br)c1", "pIC50": 4.58}
{"chem_smiles": "COc1ccccc1N1CCN(CCC(=O)c2ccc(F)cc2)CC1", "pIC50": 4.23}
{"chem_smiles": "O=C(CCN1CCN(c2ccc(C(F)(F)F)cc2)CC1)c1ccc(OC(F)(F)F)cc1", "pIC50": 4.29}
{"chem_smiles": "O=C(CCN1CCN(c2ccc(C(F)(F)F)cc2)CC1)c1ccc(F)c(Cl)c1", "pIC50": 4.67}
{"chem_smiles": "COc1ccc(C(=O)CCN2CCN(c3ccc(Cl)cc3)CC2)cc1", "pIC50": 5.02}
{"chem_smiles": "COc1ccc(C(=O)CCN2CCN(c3ccc(Cl)cc3)CC2)cc1OC", "pIC50": 4.04}
{"chem_smiles": "Cc1ccc(C(=O)CCN2CCN(c3ccc(C(F)(F)F)cc3)CC2)cc1", "pIC50": 4.85}
{"chem_smiles": "COc1ccc(C(=O)CCN2CCN(c3ccc(C(F)(F)F)cc3)CC2)cc1OC", "pIC50": 4.23}
{"chem_smiles": "O=C(CCN1CCN(c2ccc(C(F)(F)F)cc2)CC1)c1ccc(F)c(F)c1", "pIC50": 4.48}
{"chem_smiles": "O=C(CCN1CCN(c2ccc(F)cc2)CC1)c1ccc(F)c(F)c1", "pIC50": 4.67}
{"chem_smiles": "COc1ccc(C(=O)CCN2CCN(c3ccc(F)cc3)CC2)cc1", "pIC50": 5.85}
{"chem_smiles": "O=C(CCN1CCN(c2ccc([N+](=O)[O-])cc2)CC1)c1ccc(Br)cc1", "pIC50": 4.57}
{"chem_smiles": "O=C(CCN1CCN(c2ccc(C(F)(F)F)cc2)CC1)c1ccc(Cl)c(F)c1", "pIC50": 4.56}
{"chem_smiles": "COc1ccc(C(=O)CCN2CCN(c3ccc(C(F)(F)F)cc3)CC2)cc1", "pIC50": 4.14}
{"chem_smiles": "O=C(CCN1CCN(c2ccc([N+](=O)[O-])cc2)CC1)c1ccc(F)cc1", "pIC50": 4.18}
